target: CDK2 CCNE1 (human) (UniProt P24941+P24864); assay: radiometric filter-binding kinase assay, Kinase HotSpot; details: compound 0.5 µM; ATP 10 µM
Sequence (P24864 whole entry, looked up, other chains not shown): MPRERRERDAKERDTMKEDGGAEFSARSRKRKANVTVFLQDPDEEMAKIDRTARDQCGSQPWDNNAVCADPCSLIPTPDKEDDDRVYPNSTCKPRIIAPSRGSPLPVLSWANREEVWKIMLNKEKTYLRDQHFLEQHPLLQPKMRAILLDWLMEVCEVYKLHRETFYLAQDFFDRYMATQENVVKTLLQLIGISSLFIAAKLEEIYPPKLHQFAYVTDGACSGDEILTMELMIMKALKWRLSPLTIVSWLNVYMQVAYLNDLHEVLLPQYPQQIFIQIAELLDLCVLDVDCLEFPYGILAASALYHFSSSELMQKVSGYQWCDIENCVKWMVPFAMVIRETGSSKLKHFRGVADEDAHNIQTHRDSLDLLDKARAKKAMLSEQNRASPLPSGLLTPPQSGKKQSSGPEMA
measure: residual activity (%)
Numbers only here, please. The scale is %.

Reference set, count: 6
>>> df
                               query_smiles            measure  test_result
0  Oc1ccc(-c2nc(-c3ccc(F)cc3)c(-c3ccncc3)[nH]2)cc1  residual activity         90.6
1           CCN1/C(=C/C(C)=O)Sc2ccc(OC)cc21  residual activity         87.7
2  CCOc1nc(NC(=O)Cc2cc(OC)ccc2OC)cc(N)c1C#N  residual activity         88.9
3  NC(=O)c1ccc(N(C(N)=O)c2c(F)cccc2F)nc1-c1ccc(F)cc1F  residual activity         93.1
4  Cc1ccc(NC(=O)c2ccc(CN3CCN(C)CC3)cc2)cc1Nc1nc(-c2cccnc2)cs1  residual activity           95
5  O=c1cc(-c2cccc3c2Sc2ccccc2S3)oc(N2CCOCC2)c1  residual activity         84.6

Inquiry: # input compound: `CC(C)n1cnc2c(Nc3cccc(Cl)c3)nc(NCCO)nc21` ; wanted: its residual activity
Reply text: 37.2

Inquiry: What residual activity value was documented for this compound, `O=C1Nc2cc(Br)ccc2/C1=C1/Nc2ccccc2/C1=N\O` ?
Reply text: 15.4

Inquiry: Which residual activity reading was recorded for the compound `Cc1cc2ncc(-c3ccccc3)nc2cc1C` ?
Reply text: 91.8

Inquiry: Which residual activity is reported for this compound? `O=C(Nc1ccc(Cl)cc1)c1ccccc1NCc1ccncc1`
Reply text: 94.3

Inquiry: Param item = `O=C1Cc2c([nH]c3ccc([N+](=O)[O-])cc23)-c2ccccc2N1` ; retrieve measured residual activity.
Reply text: 19.6

Inquiry: # get_value(readout='residual activity', item= `NC(=O)c1ccc(-c2nc(-c3ccccn3)c(-c3ccc4c(c3)OCCO4)[nH]2)cc1` )
Reply text: 93.5

Inquiry: I'd like to know its residual activity. The compound in question is `CC(C)[C@H](CO)Nc1nc(Nc2cccc(Cl)c2)c2ncn(C(C)C)c2n1`
Reply text: 9.88

Inquiry: What value of residual activity has been reported for the following compound? `CC(C)(C)c1nc2c3ccc(F)cc3c3c(=O)[nH]ccc3c2[nH]1`
Reply text: 87.5

Attribution: the kinase profiling compilation of Christmann-Franck et al. (2016)
